Each recorded value in this set is attributed to ChEMBL document CHEMBL4673364.

Experiment: Cytotoxicity against human K213 cells assessed as reduction in cell viability by SRB assay
Format: functional, cell-based
Reported Metric: pIC50
// scale note: pIC50 = -log10(conc_M); give the bare number

Solved entries (count: 2):
C=C1[C@@H](OC(C)=O)C[C@@H]2[C@](C)(CO[Si](C)(C)C(C)(C)C)[C@H](OC(C)=O)CC[C@@]2(C)[C@@H]1C[C@@H](Nc1cccc(F)c1)C1=CCOC1=O: 5.28
C=C1[C@@H](OC(C)=O)C[C@@H]2[C@](C)(COC=O)[C@H](OC(C)=O)CC[C@@]2(C)[C@@H]1C[C@@H](Nc1cccc2ccccc12)C1=CCOC1=O: 4.50

Please look at the following molecule next.
Form field pIC50, entry C=C1CC[C@@H]2[C@](C)(CO)[C@H](O)CC[C@@]2(C)[C@@H]1C/C=C1/C(=O)OC[C@H]1O [ANDROGRAPHOLIDE] : 4.47
